Data origin, for the record: ChEMBL document CHEMBL1154203

- System: MDR1
- Protocol Details: Permeability from apical to basolateral side of MDCK cells over expressing MDR1
- Type: ADME, cell-based, Canis lupus familiaris
- Measurement Context: dog
Experimental Readout: Papp A→B (×10⁻⁶ cm/s)

Reference set, count: 2
| Chemical Smiles | Recorded Number |
| --- | --- |
| O=C(c1cccc(Cl)c1Cl)N(C1=CCOC=C1)[C@H]1CCNC1 | 1 |
| CC(C)CN(C(=O)c1cccc(Cl)c1Cl)[C@H]1CCNC1 | 16 |

I: CC(C)C(=O)N(Cc1cccc(Cl)c1Cl)[C@H]1CCNC1
II: O=C(c1cccc(Cl)c1Cl)N(C1CCCC1)[C@H]1CCNC1
Could you tell me which of these two has the smaller Papp A→B figure? First: I Second: II Answer by stating the label of the chosen item.
II
